Tested on: 786-0
assay method text: NCI tumour cell line growth inhibition, 48 h
The source made the active and inactive calls. Rule as the data show it: active = GI50 up to about 1.1 µM and inactive = higher.
Here, each record is paired with measured GI50 data.

Known results for compounds:
### Prompt What value of GI50 on 786-0 does COc1c(OC2OC(CO)C(O)C(O)C2O)cc2c(c1OC)-c1ccc(OC)c(=O)cc1[C@@H](NC(C)=O)CC2 (some centres not stated) have?
### Response > 100 µM (inactive)

### Prompt Request: "O=C1Nc2ccccc2/C1=N/Nc1nc(-c2ccc([N+](=O)[O-])cc2)cs1"
### Response 19.4 µM (inactive)

### Prompt Then "CC(=O)c1c[nH]cc1CO" ?
### Response > 10 µM (inactive)

### Prompt Item: COC(=O)C(=O)C(C(=O)C(=O)Nc1ccccc1C(C)=O)c1nc2ccc(C(=O)c3ccccc3)cc2nc1O (configuration not stated)
### Response > 100 µM (inactive)

### Prompt Try this compound too: O=C1CCC2C(O)c3cc4c(cc3C(c3ccc5c(c3)OCO5)N12)OCO4 (configuration not stated)
### Response 82 µM (inactive)

### Prompt Next: N#CC1=C(c2ccccc2)OC2(N)OC(c3ccccc3)=C(C#N)C12C#N (configuration not stated)
### Response > 100 µM (inactive)

### Prompt Follow-up item: "CC1(C)OC[C@@H]([C@H](C=O)OCc2ccccc2)O1"
### Response > 100 µM (inactive)

### Prompt Here is the next compound: "COC(=O)C1=C(CCCCO[Si](C)(C)C(C)(C)C)NC(=O)N2[C@@H](CCOCc3ccccc3)CC[C@H]12"
### Response 15.9 µM (inactive)

---
### Prompt Request body: readout GI50, system 786-0, query COc1cc(/C=C2\C(=O)N(c3ccccc3)C(c3ccccc3)S2(=O)=O)cc(OC)c1OC (configuration not stated) . Return the value.
### Response 69.5 µM (inactive)

### Prompt Do the same for "O=C(O)/C(Cl)=C(\Cl)Nc1cccc(C(F)(F)F)c1" please
### Response > 100 µM (inactive)

### Prompt Same question for "OCc1c[te]c(-c2ccccc2)c1" please.
### Response > 100 µM (inactive)
